Hello, the source for this data is PubChem BioAssay (NCI), in case you need it.

Test system: U251 CNS
Assay: NCI-60 one-dose screen, 48 h (100 = growth as untreated, 0 = no growth, -100 = all killed)
Conditions: 10 µM unless noted
This is part of a sample that, as a whole, favours compounds with a hit. Of some 83,000 tested, about 20% had one in any assay.
# Lookup of reported growth keyed by entry
The reply should contain only the number, in %.

Look over these answered cases.
molecule=O=C(N/N=C/c1c[nH]c2ccccc12)Nc1ccc(F)c(Cl)c1 test_result=42.2
molecule=COc1ccc2[nH]c(=O)c(CSc3ccccc3Nc3nccc(-c4ccc(Cl)cc4)n3)cc2c1 test_result=37.8
molecule=c1n[nH]cc1-c1nc2ccc3[nH]ncc3c2c2c1CC1(CCOCC1)CC2 test_result=29.3

Incoming: Consider the molecule shown here: COc1cc(/C=C/C(=O)c2cnn(-c3cc(=O)[nH]c4ccc(Cl)cc34)c2C)cc(OC)c1OC What is its recorded growth?
Outgoing: -65.7

Incoming: Then this molecule: CN(C)c1nc(NCCNS(=O)(=O)c2ccc(C(=O)/C=C/c3ccccc3)cc2)nc(N2CCOCC2)n1
Outgoing: 44

Incoming: What about this molecule? Cc1ccc(NC(=O)N/N=C/c2c[nH]c3ccccc23)c(C)c1
Outgoing: 9.2

Incoming: How about O=C(CSc1nnc(-c2ccc(-c3nc4ccc(Cl)cc4[nH]3)cc2)o1)Nc1ccccc1 ?
Outgoing: -79.2

Incoming: What would you report for COc1ccc(NC(=O)CSc2nnc(-c3ccc(-c4nc5ccccc5[nH]4)cc3)o2)cc1 ?
Outgoing: -68.2

Incoming: Follow-up entry: C[C@H](NC(=O)c1ccc2c(-c3ccc(C(F)(F)F)cc3)cccc2c1)c1ccccn1
Outgoing: 42.3

Incoming: Let us now turn to O=C1CC(c2ccc(I)cc2)OC2C=Cc3ccccc3C12 (stereo not given)
Outgoing: 99.5
